- Tested on: SK-OV-3 ovarian
- assay_protocol: NCI tumour cell line growth inhibition, 48 h
metric: GI50

[
  {
    "compound": "Clc1ccc2c(NCCCN3CCN(c4nc(-n5ccnc5)nc5ccccc45)CC3)ccnc2c1",
    "meas_value": "> 47.3 µM"
  },
  {
    "compound": "NC(=O)c1c(OCc2c(F)cc(Br)cc2F)nsc1NC(=O)NCCCCN1CCCC1",
    "meas_value": "> 10 µM"
  },
  {
    "compound": "O=C1Nc2ccccc2SC1C1SC(=S)N(Cc2ccccc2)C1=O (stereo not drawn)",
    "meas_value": "22.9 µM"
  }
]
